For each of the compounds below, state its Residual Binding of Histone H4Ac to BRD9 ± SD (%).
Target: BRD9 (Homo sapiens)
Construct: purchased BSP-32519
Sequence (Q9H8M2 130-259 limits assumed): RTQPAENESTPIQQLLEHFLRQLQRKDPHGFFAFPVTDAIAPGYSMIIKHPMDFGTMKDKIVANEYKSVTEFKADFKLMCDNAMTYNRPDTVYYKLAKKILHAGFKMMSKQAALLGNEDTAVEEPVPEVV
Assay: AlphaScreen competition assay, displacement of histone H4Ac from BRD9
Format: binding
Details: [Compound] = 10 μM
Description: Specifically, we focused on BRD3, a representative of the BET (bromo- and extra-terminal domains) family proteins, and BRD9, which belongs to the non-BET category (proteins containing bromodomains but not part of the BET family). […]
Give bare numbers, in %.

Below are worked cases with known answers.
- CCOc1cccc2cc(C(=O)OCCn3c([N+](=O)[O-])cnc3C)c(=O)oc12: 96.0
- CCn1c(=O)c2cc(C(=O)NCCOc3ccccc3OC)nn2c2ccccc21: 91.4

Here are 2 compounds. What values of Residual Binding of Histone H4Ac to BRD9 ± SD (%) were reported for them?
1. CCn1cc(-c2cccc(C(F)(F)F)c2)c2sc(C(=N)NC3CCS(=O)(=O)CC3)cc2c1=O [I-BRD9, reference compound]
2. COC(CNC(=O)c1ccc2c(c1)nc(C)n2-c1cccc(F)c1)OC

stdout:
8.6
52.2
